- System: TRAP-activated platelets
- Run description: Inhibition of TRAP-induced platelet aggregation after pre-incubation with peptide
- Format: cell-based, human (healthy volunteers)
- Settings: replicate 22_08_13_DONOR2; peptide 20 μM, TRAP 4 μM
- Procedure: Blood was drawn from healthy volunteers into a syringe containing a final volume of 15% Acid Citrate Dextrose (ACD). […] A platelet concentration of 3x10^5 /μl was used when performing standard aggregations and a concentration of 1x10^6 /μl was used for sample preparation for western blot analysis. The extent of platelet aggregation was measured by quantifying the optical density of the samples using the Bio-Data PAP-8 aggregometer (platelet aggregation profiler, Horsham, PA, USA). […]
Parameter Platelet aggregation remaining after TRAP (low = inhibition): see the listing below.
Measure: Platelet aggregation remaining after TRAP (low = inhibition)

| Substance | Value observed |
| --- | --- |
| NTYAFKAKEP [pal-KK-SDC4_tail Control 1, scrambled control of pal-KK-SDC4_tail, reference compound] | 74 |
| KIKGPKLKY [pal-SDC4_middle Control 1, scrambled control of pal-SDC4_middle, reference compound] | 10 |
| Pal-RMKKKDEGSYD-LGKKPIYKK [pal-SDC4-JM U SDC4-middle, palmitylated chimeric peptide of SDC4 juxtamembrane and middle regions] | 14 |
| Pal-RMKKKDEGSYD-APTNEFYA [pal-SDC4-JM U SDC4-tail, palmitylated chimeric peptide of SDC4 juxtamembrane and tail regions] | 68 |
| pal-APTNEFYA [pal-SDC4_tail, N-terminally palmitylated syndecan-4 tail peptide] | 34 |
| YKDSMERDKGK [pal-SDC4_JM Control 1, scrambled control of pal-SDC4_JM, reference compound] | 70 |
| pal-LGKKPIYKK-(NH2) [pal-SDC4_middle, N-terminally palmitylated syndecan-4 middle (variable) region peptide] | 14 |
| pal-RMKKKDEGSYD-(NH2) [pal-SDC4_JM, N-terminally palmitylated syndecan-4 juxtamembrane peptide] | 58 |
| Pal-LGKKPIYKK-APTNEFYA [pal-SDC4-middle U SDC4-tail, palmitylated chimeric peptide of SDC4 middle and tail regions] | 6 |
| Pal-KKAPTNEFYA [Pal-KK-SDC4-tail, palmitylated, slightly extended SDC4 tail peptide …] | 12 |
| IGLPKKKYK [pal-SDC4_middle Control 2, scrambled control of pal-SDC4_middle, reference compound] | 46 |
| MGYRKEDKDKS [pal-SDC4_JM Control 2, scrambled control of pal-SDC4_JM, reference compound] | 14 |
